Entries and their TGI values follow.
- Tested on: U251 CNS
- assay.method.text: NCI tumour cell line growth inhibition, 48 h
Where a SMILES comes first, the peptide text is derived from it. The star is where a group is joined. X36 = O=C(c1ccc(-c2ccc(Cl)cc2Cl)o1)*
All answers are understood in µM, so give the number only.

# count of solved cases: 4
Ask: Give recorded TGI. CCc1ccccc1NC(=O)c1sc2nc3c(cc2c1N)C(=O)CCC3
Reply: 51.7

Ask: Give recorded TGI. O=C1Nc2c(ccc(Cl)c2I)C1=O
Reply: 56.9

Ask: Give recorded TGI. Cc1ccc(/C(O)=C/C(=O)C(=O)/C=C(\O)c2ccc(C)cc2C)c(C)c1
Reply: 3.49

Ask: Give recorded TGI. CCOC(=O)/C=C(\C(=O)OCC)n1cc(C)c(=O)n(Cc2cnnn2CCCCOC(C)=O)c1=O
Reply: 49.2

Further cases:
Ask: Give recorded TGI. CCC(C)C(NC(=O)CNC(=O)C(Cc1ccccc1)NC(=O)C1CCCN1C(=O)c1ccc(-c2ccc(Cl)cc2Cl)o1)C(=O)OC (stereo not given) (X36-PFGI-OMe; configuration not given here)
Reply: 93.5

Ask: Give recorded TGI. O=C(CSC(c1ccccc1)c1ccccc1)N/N=C/c1ccc(Cl)cc1Cl
Reply: 67.3

Ask: Give recorded TGI. CN(C)Cc1cc(C(=O)/C=C/c2ccccc2Cl)cc(CN(C)C)c1O
Reply: 27

Ask: Give recorded TGI. COC(=O)/C(C)=C/[N+](=O)[O-]
Reply: 32.5

====

- Tested on: SR leukemia
- assay.method.text: NCI tumour cell line growth inhibition, 48 h; in the data active = GI50 below about 0.43 µM; inactive = the rest
Field 'call' accepts active, inactive

Ask: What classification did COc1cc2ncn(-c3cc(OCCc4ccccc4)c(C(N)=O)s3)c2cc1OC end up with in this test?
Reply: inactive

Further cases:
Ask: What classification did N#C/C(=C/N1CCN(C(=O)c2ccco2)C1=S)C(=O)c1ccccc1 end up with in this test?
Reply: inactive

Ask: What classification did CCc1ccccc1NC(=O)c1sc2nc3c(cc2c1N)C(=O)CCC3 end up with in this test?
Reply: active

Ask: What classification did COc1ccc(-c2oc3cc(O)c(OC)c(O)c3c(=O)c2OC)cc1O end up with in this test?
Reply: active

====

Entries and their TGI values follow.
- Test system: M19-MEL melanoma
- assay.method.text: NCI tumour cell line growth inhibition, 48 h

# count of solved cases: 8
Ask: Give recorded TGI. CC(C)(C=O)CC(C#N)/C(=N\NC(N)=O)C(=O)Nc1ccccc1C(N)=O (centres undefined)
Reply: > 100 µM

Ask: Give recorded TGI. CN[C@@H](C)[C@H](NC)c1ccccc1
Reply: > 100 µM

Ask: Give recorded TGI. Cc1cc(C)c(C2[C@H]3C(=O)N(c4ccc(Cc5ccc(N6C(=O)[C@@H]7ON(c8ccccc8)C(c8c(C)cc(C)cc8C)[C@@H]7C6=O)cc5)cc4)C(=O)[C@H]3ON2c2ccccc2)c(C)c1 (some centres undefined)
Reply: > 100 µM

Ask: Give recorded TGI. C=C1C[C@]23CCC4C(C)(C)C(=O)CC[C@]4(C)C2C[C@H]1C(O)C3=O (some centres undefined)
Reply: > 75 µM

Ask: Give recorded TGI. O=C1c2ccc3c4ccccc4n(Cc4ccccc4)c3c2C(=O)N1c1ccccc1
Reply: 33.2 µM

Ask: Give recorded TGI. Oc1cc(C2OCCCO2)cc(O)c1O
Reply: > 100 µM

Ask: Give recorded TGI. Nc1ccc2[nH]c3c(-c4ccccc4)nccc3c2c1
Reply: > 100 µM

Ask: Give recorded TGI. O=C(Cc1ccccc1)NN1C(=O)C(Cl)C1c1ccc(O)cc1 (centres undefined)
Reply: > 100 µM

Further cases:
Ask: Give recorded TGI. COc1cccc(C2CC(C)=Nc3c(ccc4c3C(=O)c3ccccc3C4=O)N2)c1O (centres undefined)
Reply: > 100 µM

Ask: Give recorded TGI. O=C(CSc1nnc(Cc2ccccc2)o1)Nc1ccc([N+](=O)[O-])cc1
Reply: > 100 µM

Ask: Give recorded TGI. Cc1[nH]c(=O)[nH]c(=O)c1/C=C/C(=O)O
Reply: > 1000 µM

Ask: Give recorded TGI. COc1cc2ccc3c4cc(OC)c(OC(C)C)cc4cnc3c2cc1OC
Reply: > 100 µM

Ask: Give recorded TGI. COC(=O)CCC(=O)CC1CC(=O)C2CCCN12 (centres undefined)
Reply: > 100 µM

Ask: Give recorded TGI. COc1ccc(O)cc1
Reply: > 100 µM

Ask: Give recorded TGI. COC(=O)N/N=C(\C)C(CN1CCCCC1)C(C1=C(O)c2ccccc2OC1)c1ccccc1 (centres undefined)
Reply: > 100 µM

Ask: Give recorded TGI. COc1cc(Nc2c3ccccc3nc3ccccc23)ccc1NS(C)(=O)=O
Reply: 22.3 µM
